target: 5-hydroxytryptamine receptor 2A (Homo sapiens); assay: Antagonist activity at recombinant human 5-HT2A expressed in human U2OS cells by pathhunter beta-arrestin assay
Sequence (P28223 whole entry): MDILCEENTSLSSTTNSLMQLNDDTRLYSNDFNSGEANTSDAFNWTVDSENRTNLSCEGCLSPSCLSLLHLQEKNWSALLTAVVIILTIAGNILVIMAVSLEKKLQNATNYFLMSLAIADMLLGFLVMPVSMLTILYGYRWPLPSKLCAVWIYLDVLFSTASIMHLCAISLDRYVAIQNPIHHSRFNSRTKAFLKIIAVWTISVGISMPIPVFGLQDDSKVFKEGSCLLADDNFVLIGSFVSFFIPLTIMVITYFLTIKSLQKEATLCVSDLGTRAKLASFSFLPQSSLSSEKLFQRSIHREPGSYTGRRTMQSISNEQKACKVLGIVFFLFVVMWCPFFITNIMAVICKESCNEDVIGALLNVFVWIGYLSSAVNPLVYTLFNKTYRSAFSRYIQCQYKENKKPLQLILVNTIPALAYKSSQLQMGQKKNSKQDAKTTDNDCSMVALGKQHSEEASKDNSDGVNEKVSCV
Where a name gives a salt, the structure may show the parent alone.
MEASUREMENT_NAME: IC50 (nM)

I = O=C(NCCN1CCN(c2ncccn2)CC1)C12CC3CC(CC(C3)C1)C2 [ADATANSERIN HYDROCHLORIDE]
II = S=C(NCCN1CCN(c2ncccn2)CC1)C12CC3CC(CC(C3)C1)C2
// pick larger IC50 from pair: I vs II Kindly state the label of the option you pick.
II
(II: 62.3 nM, I: 33.7 nM)

###

target: 5-hydroxytryptamine receptor 2C (Homo sapiens, UniProt P28335); assay: Antagonist activity at recombinant human 5-HT2C expressed in human U2OS cells by pathhunter beta-arrestin assay
Sequence (P28335 whole entry): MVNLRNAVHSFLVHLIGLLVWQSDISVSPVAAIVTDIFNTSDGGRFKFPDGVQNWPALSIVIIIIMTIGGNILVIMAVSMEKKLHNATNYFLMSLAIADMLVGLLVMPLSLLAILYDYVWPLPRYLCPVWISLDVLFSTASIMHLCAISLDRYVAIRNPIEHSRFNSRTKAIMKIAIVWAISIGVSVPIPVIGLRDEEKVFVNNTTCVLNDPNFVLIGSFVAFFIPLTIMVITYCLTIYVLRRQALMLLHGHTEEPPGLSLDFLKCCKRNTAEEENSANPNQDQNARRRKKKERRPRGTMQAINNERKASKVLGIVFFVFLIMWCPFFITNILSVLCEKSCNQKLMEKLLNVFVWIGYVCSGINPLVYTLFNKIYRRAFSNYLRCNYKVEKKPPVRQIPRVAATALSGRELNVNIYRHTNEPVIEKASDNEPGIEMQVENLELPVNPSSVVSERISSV
Structures can show the parent of a compound that is named as a salt.
MEASUREMENT_NAME: IC50 (µM)

a = O=C(NCCN1CCN(c2ncccn2)CC1)C12CC3CC(CC(C3)C1)C2 [ADATANSERIN HYDROCHLORIDE]
b = Cc1cc2c(cc1Cl)N(C(=O)Nc1ccc(Oc3cccnc3C)nc1)CC2
Between a and b , whose recorded IC50 is greater? Give the chosen item's label as your response.
a

###

target: 5-hydroxytryptamine receptor 1A (Homo sapiens, UniProt P08908); experiment: Partial agonist activity at recombinant human 5-HT1A expressed in CHO-K1 cells by pathhunter beta-arrestin assay
Sequence (P08908 whole entry): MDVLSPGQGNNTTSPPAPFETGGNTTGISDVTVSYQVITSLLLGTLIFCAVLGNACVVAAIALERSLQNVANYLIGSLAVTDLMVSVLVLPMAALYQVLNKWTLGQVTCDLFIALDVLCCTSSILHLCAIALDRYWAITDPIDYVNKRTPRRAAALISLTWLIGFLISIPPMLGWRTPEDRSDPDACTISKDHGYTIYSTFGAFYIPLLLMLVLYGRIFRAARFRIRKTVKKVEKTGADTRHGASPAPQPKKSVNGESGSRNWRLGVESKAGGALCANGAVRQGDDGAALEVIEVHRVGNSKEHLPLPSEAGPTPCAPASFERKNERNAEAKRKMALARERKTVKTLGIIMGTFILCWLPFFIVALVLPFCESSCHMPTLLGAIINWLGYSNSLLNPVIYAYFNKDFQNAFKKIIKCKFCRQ
Counter-ions that a name gives are not always drawn.
MEASUREMENT_NAME: EC50 (nM)
Write the number in nM without appending the unit.

Looking up O=C(NCCN1CCN(c2ncccn2)CC1)C12CC3CC(CC(C3)C1)C2 [ADATANSERIN HYDROCHLORIDE] , I see its EC50 listed as 2.1

Values compiled from ChEMBL document CHEMBL4622953.
